- protocol.notes: Elimination half life in healthy adult male human subject at 12 mg/kg, po
- Format: ADME, organism-based
- measurement.conditions: in vivo, read-out: beta t1/2 (converted)
readout.kind: half-life (h)
One number for each entry, in h.

Query CC(=O)Nc1ccc(O)cc1 yields half-life of 1.97

* * *

- protocol.notes: Drug excretion in human urine assessed as unchanged parent compound level
- Assay type: ADME
- measurement.conditions: read-out: Drug excretion
Provide the reported dose excreted of each item.

INSERT INTO measurements (molecule, result) VALUES
  ('CC(=O)Nc1ccc(O)cc1 [ACETAMINOPHEN]', '2%');

Query CCOc1ccc(NC(C)=O)cc1 [PHENACETIN] yields dose excreted of < 0.5%

* * *

- protocol.notes: Volume of distribution at central and peripheral compartment in healthy adult male human subject at 12 mg/kg, iv
- measurement.conditions: in vivo
readout.kind: Vd (L/kg)
One number for each entry, in L/kg.

Query CC(=O)Nc1ccc(O)cc1 yields Vd of 0.897

* * *

- protocol.notes: Elimination half life in healthy adult male human subject at 12 mg/kg, iv
- Assay type: ADME, organism-based
- measurement.conditions: in vivo, read-out: beta t1/2 (converted)
readout.kind: half-life (min)
Numbers only, in min.

Query CC(=O)Nc1ccc(O)cc1 yields half-life of 119

* * *

- protocol.notes: Systemic availability in healthy adult male human subject at 12 mg/kg, po
- Assay type: ADME, organism-based
- measurement.conditions: in vivo
readout.kind: bioavailability (%)
Numbers only, in %.

Query CC(=O)Nc1ccc(O)cc1 [ACETAMINOPHEN] yields bioavailability of 76

* * *

- protocol.notes: Systemic availability in human
- Type: ADME, organism-based
- measurement.conditions: in vivo
readout.kind: bioavailability
For clarity, give the value followed by its unit.

Query CC(=O)Nc1ccc(O)cc1 [ACETAMINOPHEN] yields bioavailability of 75%

* * *

- protocol.notes: Half life in healthy young adult human
- Type: ADME, organism-based
- measurement.conditions: in vivo
readout.kind: half-life (h)
Answers are plain numbers, in h.

Query CC(=O)Nc1ccc(O)cc1 yields half-life of 2

* * *

- protocol.notes: Volume of distribution at central compartment in healthy adult male human subject at 12 mg/kg, iv
- measurement.conditions: in vivo
readout.kind: Vd

Query CC(=O)Nc1ccc(O)cc1 [ACETAMINOPHEN] yields Vd of 0.509 L/kg

* * *

- protocol.notes: Drug excretion in urine of healthy young adult human assessed as unchanged parent drug level after 24 hrs
- Type: ADME
- measurement.conditions: read-out: Drug excretion
readout.kind: dose excreted at 24 h (%)
Give bare numbers, in %.

Query CC(=O)Nc1ccc(O)cc1 yields dose excreted at 24 h of 4

* * *

- protocol.notes: Half life in elderly human
- Assay type: ADME, organism-based
- measurement.conditions: in vivo
readout.kind: half-life

Query CC(=O)Nc1ccc(O)cc1 yields half-life of 2.17 h

* * *

- protocol.notes: Volume of distribution in 70 kg adult human at 12 mg/kg, iv infused over 2 mins
- measurement.conditions: in vivo
readout.kind: Vd at 2 min (L)
Numbers only, in L.

Query CC(=O)Nc1ccc(O)cc1 yields Vd at 2 min of 65

Cited source for all entries: ChEMBL document CHEMBL3784961
